# target-desc: human vitronectin receptor αvβ3 (Homo sapiens, UniProt P05106+P06756)
# Construct: Human vitronectin receptor was obtained from the human placenta according to the method of Pytela et al; from tissue; host or cells: human placenta
# Sequence (P06756 31-889 limits assumed): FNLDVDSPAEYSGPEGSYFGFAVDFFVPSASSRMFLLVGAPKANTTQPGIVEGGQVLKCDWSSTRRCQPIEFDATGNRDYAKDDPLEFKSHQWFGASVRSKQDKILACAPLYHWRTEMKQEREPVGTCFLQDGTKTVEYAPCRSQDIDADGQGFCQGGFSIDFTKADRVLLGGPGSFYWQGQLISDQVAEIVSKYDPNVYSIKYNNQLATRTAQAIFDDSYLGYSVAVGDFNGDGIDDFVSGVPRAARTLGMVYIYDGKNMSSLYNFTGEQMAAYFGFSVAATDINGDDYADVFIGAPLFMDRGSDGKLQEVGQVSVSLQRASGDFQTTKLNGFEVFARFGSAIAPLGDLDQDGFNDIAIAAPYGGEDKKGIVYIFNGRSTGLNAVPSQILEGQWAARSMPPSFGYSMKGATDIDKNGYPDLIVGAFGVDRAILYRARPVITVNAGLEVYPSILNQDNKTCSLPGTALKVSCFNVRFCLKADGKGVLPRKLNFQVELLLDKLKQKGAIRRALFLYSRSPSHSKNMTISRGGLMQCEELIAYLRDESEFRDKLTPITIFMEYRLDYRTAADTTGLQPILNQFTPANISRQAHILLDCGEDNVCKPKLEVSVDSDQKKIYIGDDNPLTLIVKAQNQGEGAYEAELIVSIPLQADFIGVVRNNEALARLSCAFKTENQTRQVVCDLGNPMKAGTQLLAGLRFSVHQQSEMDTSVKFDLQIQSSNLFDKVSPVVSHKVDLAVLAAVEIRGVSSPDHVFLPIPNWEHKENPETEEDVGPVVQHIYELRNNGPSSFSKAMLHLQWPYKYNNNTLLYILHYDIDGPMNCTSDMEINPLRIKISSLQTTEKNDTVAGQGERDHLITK
# Sequence (P06756 891-1048 partner limits assumed): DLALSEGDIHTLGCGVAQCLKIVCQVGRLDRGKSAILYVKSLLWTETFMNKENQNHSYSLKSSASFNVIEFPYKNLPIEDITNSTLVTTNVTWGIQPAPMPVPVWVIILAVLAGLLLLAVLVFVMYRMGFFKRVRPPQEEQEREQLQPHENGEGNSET
# Sequence (P05106 27-788): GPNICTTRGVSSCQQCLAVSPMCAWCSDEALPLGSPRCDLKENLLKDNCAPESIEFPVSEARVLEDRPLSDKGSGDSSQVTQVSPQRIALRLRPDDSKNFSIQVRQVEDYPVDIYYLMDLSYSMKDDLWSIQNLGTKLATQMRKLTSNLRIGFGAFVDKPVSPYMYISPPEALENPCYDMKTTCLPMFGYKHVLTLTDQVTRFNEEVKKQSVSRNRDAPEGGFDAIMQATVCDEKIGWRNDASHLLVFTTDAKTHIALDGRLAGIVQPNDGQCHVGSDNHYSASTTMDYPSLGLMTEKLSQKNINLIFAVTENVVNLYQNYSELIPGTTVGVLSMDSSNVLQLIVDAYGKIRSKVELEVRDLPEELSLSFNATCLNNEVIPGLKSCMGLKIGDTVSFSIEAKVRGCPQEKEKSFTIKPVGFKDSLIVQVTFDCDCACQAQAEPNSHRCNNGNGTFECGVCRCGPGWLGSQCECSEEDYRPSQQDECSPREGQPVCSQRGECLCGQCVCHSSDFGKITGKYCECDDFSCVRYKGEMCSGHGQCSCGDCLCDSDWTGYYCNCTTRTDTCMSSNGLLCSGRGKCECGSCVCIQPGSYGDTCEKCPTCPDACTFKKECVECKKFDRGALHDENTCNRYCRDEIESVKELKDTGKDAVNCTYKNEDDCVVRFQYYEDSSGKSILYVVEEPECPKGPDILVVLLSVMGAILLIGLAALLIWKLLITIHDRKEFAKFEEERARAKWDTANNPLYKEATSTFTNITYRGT
# test-name: Kistrin binding assay (αvβ3 ELISA test, K/VnR)
pIC50: −log10 of the molar value.
reported-property: pIC50

                    structure_smiles_string  reported_property  quantitative_result
0  Cc1nc(NC[C@H](NS(=O)(=O)c2cccc3ccccc23)C(=O)O)c2ccn(CCCC(=O)NC3=NCCCN3)c2n1              pIC50                 8.66

====

# target-desc: human vitronectin receptor αvβ3 (Homo sapiens, UniProt P05106+P06756)
# Construct: Human vitronectin receptor was obtained from the human placenta according to the method of Pytela et al; from tissue; host or cells: human placenta
# test-name: Kistrin binding assay (αvβ3 ELISA test, K/VnR)
# details: inhibition of the binding of kistrin to human vitronectin receptor (VnR), ELISA; read-out: K/VnR IC50
Listed compounds paired with reported IC50
reported-property: IC50 (nM)

>>> df
                    structure_smiles_string  reported_property  quantitative_result
0  Cc1nc(NC[C@H](NS(=O)(=O)c2ccccc2)C(=O)O)c2ccn(CCCC(=O)NC3=NCCCN3)c2n1               IC50                    3
1  O=C(CCCn1cnc2c(NC[C@H](NC(=O)OCc3ccccc3)C(=O)O)ncnc21)NC1=NCCCN1               IC50                   22
2  Cc1nc(NC[C@H](NS(=O)(=O)c2ccc(Br)cc2)C(=O)O)c2ccn(CCCC(=O)NC3=NCCCN3)c2n1               IC50                  2.6
